FYI, the data here is from ChEMBL document CHEMBL3991601.

Molecular target: Serine/threonine-protein kinase SIK2 (Homo sapiens); further: in the data inactive means no Kd found up to 30 µM
Sequence (Q9H0K1 whole entry): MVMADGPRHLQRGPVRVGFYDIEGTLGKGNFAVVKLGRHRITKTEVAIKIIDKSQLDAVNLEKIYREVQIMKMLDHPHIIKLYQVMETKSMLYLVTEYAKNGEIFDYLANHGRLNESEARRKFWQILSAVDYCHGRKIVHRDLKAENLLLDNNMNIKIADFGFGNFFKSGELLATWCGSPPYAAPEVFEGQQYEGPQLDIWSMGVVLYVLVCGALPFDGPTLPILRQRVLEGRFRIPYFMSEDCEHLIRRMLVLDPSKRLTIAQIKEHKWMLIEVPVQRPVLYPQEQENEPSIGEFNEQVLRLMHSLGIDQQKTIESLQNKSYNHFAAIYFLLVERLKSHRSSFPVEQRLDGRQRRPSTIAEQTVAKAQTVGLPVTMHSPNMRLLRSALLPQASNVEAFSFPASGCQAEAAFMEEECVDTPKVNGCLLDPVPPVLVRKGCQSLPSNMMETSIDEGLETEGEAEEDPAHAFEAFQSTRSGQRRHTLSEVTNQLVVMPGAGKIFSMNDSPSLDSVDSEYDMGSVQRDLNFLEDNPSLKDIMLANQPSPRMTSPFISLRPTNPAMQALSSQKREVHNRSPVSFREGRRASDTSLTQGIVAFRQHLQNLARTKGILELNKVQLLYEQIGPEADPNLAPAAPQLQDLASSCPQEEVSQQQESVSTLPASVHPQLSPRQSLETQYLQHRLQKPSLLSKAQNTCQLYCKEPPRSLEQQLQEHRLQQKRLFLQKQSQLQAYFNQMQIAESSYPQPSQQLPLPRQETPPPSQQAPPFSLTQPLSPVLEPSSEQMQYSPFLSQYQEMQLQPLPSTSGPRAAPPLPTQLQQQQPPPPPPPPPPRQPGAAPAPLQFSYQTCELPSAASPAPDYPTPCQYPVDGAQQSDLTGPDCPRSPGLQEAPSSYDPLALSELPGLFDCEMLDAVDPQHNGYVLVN
Calls of active or inactive are those of the source.
Return exactly one item of 1 (yes) = active, 0 (no) = inactive

• O=C(O)[C@]1(Cc2cccc(Nc3nccs3)n2)CC[C@@H](Oc2cccc(Cl)c2F)CC1 = 0 (no)

Outcome logged for CCn1c(=O)c(-c2cc[nH]n2)cc2c(C)nc(N)nc21 in this assay:
0 (no)

What classification did Cc1ccc(-n2nc(C(C)(C)C)cc2NC(=O)NCc2cc(F)ccc2Oc2ccc3c(cnn3CCO)c2)cc1 end up with in this test?
0 (no)

----------
Biological target: Ephrin type-A receptor 5 (Homo sapiens, UniProt P54756); further: in the data inactive means no Kd found up to 30 µM
Sequence (P54756 whole entry): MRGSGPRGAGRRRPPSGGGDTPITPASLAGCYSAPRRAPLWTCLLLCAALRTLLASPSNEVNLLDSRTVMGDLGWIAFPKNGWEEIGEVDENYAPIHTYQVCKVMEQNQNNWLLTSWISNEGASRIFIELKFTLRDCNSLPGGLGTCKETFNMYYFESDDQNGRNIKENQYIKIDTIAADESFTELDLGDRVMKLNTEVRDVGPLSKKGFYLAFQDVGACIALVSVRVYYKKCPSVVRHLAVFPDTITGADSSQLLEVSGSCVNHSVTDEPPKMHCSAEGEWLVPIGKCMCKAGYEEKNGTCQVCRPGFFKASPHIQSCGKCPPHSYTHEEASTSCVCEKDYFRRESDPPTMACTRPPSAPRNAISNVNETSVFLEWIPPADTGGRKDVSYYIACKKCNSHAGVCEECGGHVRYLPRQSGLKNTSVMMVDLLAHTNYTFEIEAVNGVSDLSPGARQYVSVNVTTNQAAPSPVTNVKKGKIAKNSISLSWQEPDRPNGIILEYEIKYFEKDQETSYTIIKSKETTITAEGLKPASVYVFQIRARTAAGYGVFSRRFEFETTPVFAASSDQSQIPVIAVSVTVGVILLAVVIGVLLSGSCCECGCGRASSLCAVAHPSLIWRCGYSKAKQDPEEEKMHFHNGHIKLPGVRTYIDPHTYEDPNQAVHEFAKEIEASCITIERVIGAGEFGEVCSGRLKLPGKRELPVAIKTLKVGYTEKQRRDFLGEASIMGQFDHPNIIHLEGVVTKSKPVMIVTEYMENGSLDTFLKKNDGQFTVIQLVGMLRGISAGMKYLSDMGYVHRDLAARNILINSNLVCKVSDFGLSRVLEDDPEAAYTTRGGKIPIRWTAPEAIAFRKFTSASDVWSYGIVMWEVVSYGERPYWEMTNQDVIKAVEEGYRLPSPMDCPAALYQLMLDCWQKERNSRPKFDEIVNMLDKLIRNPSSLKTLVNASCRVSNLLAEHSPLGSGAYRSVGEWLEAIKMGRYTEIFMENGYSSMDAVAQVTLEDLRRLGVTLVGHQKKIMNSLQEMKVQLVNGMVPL
Activity calls are given as the source filed them.
Reply using exactly one outcome from active, inactive

The following compounds have reported results that may help.
* Cc1cc2c(F)c(Oc3ncnn4cc(OC[C@@H](C)OC(=O)[C@H](C)N)c(C)c34)ccc2[nH]1 [BRIVANIB ALANINATE] | inactive
* CNC(=O)c1ccc(-c2cnc3ncc(Cc4ccc5ncccc5c4)n3n2)cc1F [CAPMATINIB] | inactive
* O=C1NC(=O)/C(=C/c2ccc3nccc(-c4ccncc4)c3c2)S1 [GSK-1059615] | inactive

Attention now turns to another entry.
Which outcome was entered for the compound COc1cc2nccc(Oc3ccc(NC(=O)Nc4cc(C)on4)c(Cl)c3)c2cc1OC [TIVOZANIB] in this test?
active
